pIC50 by entry:
- Tgt: full-length human PLD1 (Homo sapiens (Human), UniProt Q13393)
- Sequence (Q13393 other isoform, or with tags, fused parts or gaps): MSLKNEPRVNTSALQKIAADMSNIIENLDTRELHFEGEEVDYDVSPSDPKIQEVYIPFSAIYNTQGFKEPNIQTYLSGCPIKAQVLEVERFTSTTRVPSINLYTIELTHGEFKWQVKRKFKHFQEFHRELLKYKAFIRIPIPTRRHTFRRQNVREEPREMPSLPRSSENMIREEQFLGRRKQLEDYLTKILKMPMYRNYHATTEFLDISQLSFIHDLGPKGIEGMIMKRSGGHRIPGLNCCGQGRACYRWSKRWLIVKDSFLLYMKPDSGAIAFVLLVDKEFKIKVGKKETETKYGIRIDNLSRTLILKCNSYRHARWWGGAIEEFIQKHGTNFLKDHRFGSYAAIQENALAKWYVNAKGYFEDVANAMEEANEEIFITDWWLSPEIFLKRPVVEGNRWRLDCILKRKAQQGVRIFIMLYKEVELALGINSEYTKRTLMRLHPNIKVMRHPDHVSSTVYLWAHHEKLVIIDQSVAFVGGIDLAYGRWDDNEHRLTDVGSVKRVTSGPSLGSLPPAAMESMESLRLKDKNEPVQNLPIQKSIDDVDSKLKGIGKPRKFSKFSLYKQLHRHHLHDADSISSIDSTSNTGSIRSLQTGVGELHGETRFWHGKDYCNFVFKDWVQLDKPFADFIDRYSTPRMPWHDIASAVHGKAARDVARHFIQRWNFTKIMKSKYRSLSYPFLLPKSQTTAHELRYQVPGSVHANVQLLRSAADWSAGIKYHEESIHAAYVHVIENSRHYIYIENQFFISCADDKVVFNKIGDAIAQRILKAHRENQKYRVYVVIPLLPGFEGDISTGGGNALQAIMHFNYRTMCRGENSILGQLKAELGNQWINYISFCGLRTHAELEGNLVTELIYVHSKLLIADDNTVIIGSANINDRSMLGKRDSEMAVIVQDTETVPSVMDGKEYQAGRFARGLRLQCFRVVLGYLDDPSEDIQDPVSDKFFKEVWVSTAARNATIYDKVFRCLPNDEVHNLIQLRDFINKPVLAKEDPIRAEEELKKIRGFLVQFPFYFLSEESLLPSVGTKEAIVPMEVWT
- Experiment notes: Evaluation of human PLD1 enzyme inhibitory activity (Amplex Red / choline oxidase fluorescence)
- Assay type: biochemical
- Condition notes: full-length human PLD1 enzyme; read-out: PLD1 IC50
- Procedure: A method for measuring human PLD1 enzyme inhibitory activity using an enzyme in which a FLAG-tag is added to the N-terminus of full-length human PLD1 (1-1036 amino acids) is shown below. DNA fragment in which a FLAG-tag sequence is added to the 5′-end of full-length human PLD1 was amplified by PCR method, using commercially available human PLD1 gene (Promega KK) as a template. […]
The meaning of pIC50 here: minus log10 of the concentration in molar units.

[[record]]
molecule = "C[C@@H](C[C@H]1CC[C@]2(CC1)OC(=O)NN=C2c1ccccc1S(C)(=O)=O)NC(=O)c1cc(Cl)no1"
tgt = "full-length human PLD1 (Homo sapiens (Human), UniProt Q13393)"
measurement_name = "pIC50"
number = 6.46


Now turn to the next molecule.
Looking up C[C@@H](C[C@H]1CC[C@]2(CC1)OC(=O)NN=C2c1ccc(F)cc1)NC(=O)c1cc2ccccc2o1 , I see its pIC50 listed as 7.52
